B1: Caulobacter ParB omega fusion; a variant is named by its letters at X, in order, B8GW30 (parent)
chain: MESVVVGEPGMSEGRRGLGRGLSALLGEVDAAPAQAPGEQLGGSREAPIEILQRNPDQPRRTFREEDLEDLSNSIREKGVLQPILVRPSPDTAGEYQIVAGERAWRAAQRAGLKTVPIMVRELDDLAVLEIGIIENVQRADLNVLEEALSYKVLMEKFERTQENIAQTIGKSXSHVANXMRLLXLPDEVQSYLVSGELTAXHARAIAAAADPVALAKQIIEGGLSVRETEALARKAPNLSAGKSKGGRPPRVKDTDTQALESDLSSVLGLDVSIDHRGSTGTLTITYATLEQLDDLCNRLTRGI

- Variants of: B1
- test.method.notes: one-hybrid fitness for binding parS DNA (scaled: cognate 1, non-cognate 0); higher = stronger binding
- assay.context: with parS DNA site
Over roughly 81,000 sequences, “one-hybrid fitness for binding parS DNA” has its median near -0.17; the highest 2% begin near 0.51. The entries come from a sample that favours the highest values as a whole.
one-hybrid fitness for binding parS DNA: recorded values

Some solved cases for reference:
# mutations, one-hybrid fitness for binding parS DNA
records = [
    ("QGRS", "≤ 0.2"),
    ("VPNM", "≤ 0.2"),
    ("RDQG", "≤ 0.2"),
    ("RTHD", "≤ 0.2"),
    ("HKES", "≤ 0.2"),
]

Please indicate one-hybrid fitness for binding parS DNA recorded for RMQR
0.223
